System: Poly I:C-induced ICAM-1 expression in BEAS2B cells
Assay Procedure: Poly I:C-induced ICAM-1 expression in BEAS2B cells
Assay type: cell-based
Study Conditions: Homo sapiens, BEAS-2B, read-out: Poly IC induced ICAM1 in BEAS2B IC50
Description: Poly I:C is used in these studies as a simple, RNA virus mimic. […] Cells are pre-incubated with final concentrations of test compounds for 2 hr and the level of ICAM1 expression on the cell surface is determined by cell-based ELISA. […] The cells are washed with PBS-Tween (3×200 μL) and incubated with the secondary antibody (100 μL) (HRP-conjugated anti-rabbit IgG, Dako Ltd., Glostrup, Denmark). […] The measured OD 450-655 readings are corrected for cell number by dividing with the OD595 reading in each well.
Each record here notes measured pIC50.
Please treat pIC50 as minus the base-10 logarithm of the molar concentration.

COCCOc1cccc(-n2nc(C(C)(C)C)cc2NC(=O)Nc2ccc(Oc3ccnc(Nc4cc(C)c5[nH]ncc5c4)c3)c3ccccc23)c1	8.36

Report measured pIC50; entry is `COc1ccc(-n2nc(C(C)(C)C)cc2NC(=O)Nc2ccc(Oc3ccnc(Nc4ccc5[nH]nc(C(=O)N(C)C)c5c4)n3)c3ccccc23)cc1`
9.30

Report measured pIC50; entry is `CC(C)(C)c1cc(NC(=O)Nc2ccc(Oc3ccnc(Nc4ccc5[nH]ncc5c4)n3)c3ccccc23)n(-c2ccc(=O)n(CCN3CCOCC3)c2)n1`
7.44
